Values compiled from patent US6168954A.

- method description: GST conjugation activity with alachlor (HPLC)
- Type: biochemical
- settings: 0.4 mM electrophilic substrate, 4 mM glutathione, 0.1 M MOPS pH 7.0, corrected for uncatalyzed reaction
The molecules listed here are annotated with their Activity of soybean GST enzyme, Alachlor.
Hi, when you answer, please include the unit after the number. Thanks!

Please review the following examples before continuing.
ssl.pk0005.e6: soybean type III GST encoded by cDNA insert in clone ss1.pk0005.e6 (protein) MTDEVVLLDFWPSPFGMRVRIALAEKGIEYEYKEEDLRNKSPLLLQMNPVHKKIPVLIHNGKPISESLIAVQYIEEVWNDRNPLLPSDPYQRAQARFWADYVDIKIHDLGKKIWTSKGEEKEAAKKEFIEALKLLEEQLGDKTYFGGDNIGFVDIALVPFYTWFKVYETFGSLNIENECPRFVAWAKRCLQKESVAKSLPDQHKVYEFVVEIRKKLVIE ... 166 nmol/min/mg
ssl.pk0020.b10: soybean type III GST encoded by cDNA insert in clone ss1.pk0020.b10 (protein) MAEQDKVILHGMWASPYAKRVELALNFKGIPYEYVEEDLRNKSDLLLKYNPVHKKVPVLVHNGKAIAESMVILEYIDETWKDGPKLLPSDSYKRAQARFWCHFIQDQLMESTFLVVKTDGEAQQKAIDHVYEKLKVLEDGMKTYLGEGNAIISGVENNFGILDIVFCALYGAYKAHEEVIGLKFIVPEKFPVLFSWLMAIAEVEAVKIATPPHEKTVGILQLFRLSALKSSSATE ... 7 nmol/min/mg
se1.27b04: soybean type I GST encoded by cDNA insert in clone se1.27b04 (protein) MICLHEKEVDFELVPVNVFAAEHKQPPFLSKNPFGFIPVLEDGDLTLFESRAITAYVAEKFKETEPDLIRHKDAKEAALVKVWTEVESHYYEPAVSPIIYEYFVAPFQGKEPDKSVIDTNVEKLKTVLDVYEAKLSSTKYLAGDFYSLADLSHVSETHYLMQTPCASMINELPHVKAWWEDISSRPAFNKVVGGMSFGQNH ... 0 nmol/min/mg

Kindly review the next molecule as well.
The molecule se1.pk0017.f5: soybean type IV GST encoded by cDNA insert in clone se1.pk0017.f5 (protein) MASLGVRPVLPPPLTSISDPPPLFDGTTRLYISYSCPYAQRVWIARNYKGLQDKINLVPINLQDRPAWYKEKVYPENKVPSLEHNGKVLGESLDLIKYVDANFEGTPLFPSDPAKKEFGEQLISHVDTFSKDLFVSLKGDAVQQASPAFEYLENALGKFDDGPFLLGQFSLVDIAYIPFVERFQIVFAEVFKHDITEGRPKLATWFEELNKLNAYTETRVDPQEIVDLFKKRFLPQQ showed Activity of soybean GST enzyme, Alachlor equal to 0 nmol/min/mg
